System: PC-3 prostate
Protocol text: NCI tumour cell line growth inhibition, 384-well format
Result type: TGI

Return reported TGI; argument: `COc1cccc2c1C(=O)c1c(O)c3c(c(O)c1C2=O)C[C@@](O)(/C(CO)=N/NC(=O)CCCCCN1C(=O)C=CC1=O)C[C@@H]3O[C@H]1C[C@H](N)[C@H](O)[C@H](C)O1`
1.94 µM

Try `Cn1c(CCCC(=O)O)nc2cc(N(CCCl)CCCl)ccc21` next.
> 100 µM

Now this one: `C[C@@H](Nc1cc(F)cc(F)c1)c1cc(C(=O)N(C)C)cc2c(=O)cc(N3CCOCC3)oc12`
> 100 µM

// next record `Cc1sc(C(=O)c2cncnc2N[C@@H]2C[C@H](COS(N)(=O)=O)[C@@H](O)C2)cc1[C@@H]1NCCc2ccc(Cl)cc21`
19.2 µM
